Source of measurements: PubChem BioAssay AID330

So I've got a bunch of compounds here, and I need their T/C values.
- Tested on: P388 leukemia ip, CD2F1 mice, survival T/C
- Test Details: NCI In Vivo Anticancer Drug Screen. Data for tumor model P388 Leukemia (intraperitoneal) in CD2F1 (CDF1) mice
- Stated Conditions: endpoint: median survival time; dose: 50.0 mg/kg/injection; schedule: Q01DX005 (ip); vehicle: saline with Tween-80; higher = longer survival
Inconclusive results and toxic doses are left out.

According to the records, this compound c1ccc(-c2nc3ccccc3c3ccccc23)cc1 displays T/C of 101 % of control

According to the records, this compound COc1cc(OC)c2c(c1)OC(=O)C(C(C)=O)C2 (stereo not given) displays T/C of 96 % of control

According to the records, this compound COc1cc(Nc2ccccc2)c2c(c1N)C(=O)c1ccccc1C2=O displays T/C of 91 % of control

According to the records, this compound CC1(C(=O)O)C2[Se]c3[se]ccc3C2C1(C)C(=O)O (stereo not given) displays T/C of 104 % of control

According to the records, this compound CCC1CN2CCC1CC2C(O)c1ccnc2ccc(OC)cc12 (stereo not given) displays T/C of 100 % of control

According to the records, this compound O=C1c2ccccc2C(=O)c2c(O)c(NCCCN(CCO)CCO)cc(O)c21 displays T/C of 101 % of control

According to the records, this compound CN1C(=O)C(=N[O-])C(=O)N(C)C1=O.CN1C(=O)C(=N[O-])C(=O)N(C)C1=O.CN1C(=O)C(=N[O-])C(=O)N(C)C1=O.[Co+3] displays T/C of 100 % of control

According to the records, this compound CCOC(=O)CSc1cc(O)c2ccccc2c1N=Nc1ccc(C(=O)O)cc1 displays T/C of 88 % of control

According to the records, this compound COc1ccc(Sc2ccccn2)cc1OC displays T/C of 101 % of control

According to the records, this compound CN(Cc1c(O)ccc2ccccc12)Cc1c(O)ccc2ccccc12 displays T/C of 97 % of control

According to the records, this compound O=S1(=O)NC(=NC2CCCC2)c2ccccc21 displays T/C of 111 % of control

According to the records, this compound CCCCC(CC)CN=Cc1c(O)c(O)c(C(C)C)c2cc(C)c(-c3c(C)cc4c(C(C)C)c(O)c(O)c(C=NCC(CC)CCCC)c4c3O)c(O)c12 (stereo not given) displays T/C of 93 % of control

According to the records, this compound S=c1n(-c2ccc(Cl)cc2)c2nc3ccccc3nc(/c2=N\Nc2cc(Cl)ccc2Cl)n1-c1ccc(Br)cc1 displays T/C of 100 % of control

According to the records, this compound O=C1NC(=O)C2(OC3c4ccccc4C=CN3C3=C2C(=O)CCC3)C(=O)N1 (stereo not given) displays T/C of 94 % of control

According to the records, this compound COC(=O)c1cc(=O)c2c(ccc3oc(=O)ccc32)[nH]1 displays T/C of 88 % of control
